Attribution: patent US20180185504A1

# tgt: T1, human prolactin receptor (PRLR) (human, UniProt P16471 25-622)
# T1 sequence: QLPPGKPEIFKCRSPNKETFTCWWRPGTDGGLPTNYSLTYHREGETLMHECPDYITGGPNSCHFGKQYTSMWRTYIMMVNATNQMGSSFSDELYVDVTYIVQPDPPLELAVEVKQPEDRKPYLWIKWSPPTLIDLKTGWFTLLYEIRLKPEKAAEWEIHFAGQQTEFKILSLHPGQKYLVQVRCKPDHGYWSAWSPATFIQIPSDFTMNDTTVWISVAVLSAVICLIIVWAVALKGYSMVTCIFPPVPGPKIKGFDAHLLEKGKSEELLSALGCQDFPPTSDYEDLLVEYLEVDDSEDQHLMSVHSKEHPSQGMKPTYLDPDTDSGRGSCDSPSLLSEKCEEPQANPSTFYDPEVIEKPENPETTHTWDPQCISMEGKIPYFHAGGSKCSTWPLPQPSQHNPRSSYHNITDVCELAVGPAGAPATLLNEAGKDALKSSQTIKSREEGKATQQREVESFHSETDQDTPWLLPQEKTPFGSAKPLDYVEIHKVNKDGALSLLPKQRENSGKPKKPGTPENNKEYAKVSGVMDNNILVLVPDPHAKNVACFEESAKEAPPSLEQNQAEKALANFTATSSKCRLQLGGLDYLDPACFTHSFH
# test protocol: cell-based or functional assay
experimental endpoint: % Kill, MCF7/PRLR cells (%)
Respond with the bare value in %.

[
  {
    "binder": "H1H6958N2-DM1 (antibody, human IgG1, V domains shown, DM1 conjugated through SMCC linker; attachment residues not stated) VH: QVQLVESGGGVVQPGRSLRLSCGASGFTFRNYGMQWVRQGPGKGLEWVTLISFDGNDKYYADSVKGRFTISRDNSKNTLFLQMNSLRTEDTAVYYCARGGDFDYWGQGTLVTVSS VL: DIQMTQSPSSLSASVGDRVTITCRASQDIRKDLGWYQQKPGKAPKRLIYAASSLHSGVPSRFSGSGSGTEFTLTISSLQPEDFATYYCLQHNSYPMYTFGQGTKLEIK",
    "quantity unit": "%",
    "result": 80
  },
  {
    "binder": "H1H6953N-DM1 (antibody, human IgG1, V domains shown, DM1 conjugated through SMCC linker; attachment residues not stated) VH: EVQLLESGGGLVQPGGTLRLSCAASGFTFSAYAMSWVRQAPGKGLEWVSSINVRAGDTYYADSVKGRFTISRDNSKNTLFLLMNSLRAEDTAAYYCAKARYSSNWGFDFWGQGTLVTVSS VL: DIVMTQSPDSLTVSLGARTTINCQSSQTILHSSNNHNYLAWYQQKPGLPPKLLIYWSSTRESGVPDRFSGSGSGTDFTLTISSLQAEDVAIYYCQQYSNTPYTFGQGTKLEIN",
    "quantity unit": "%",
    "result": 80
  },
  {
    "binder": "H1H6958N2-mc-VC-PAB-MMAE (antibody, human IgG1, V domains shown, MMAE conjugated through cleavable mc-vc-PAB linker; attachment residues not stated) VH: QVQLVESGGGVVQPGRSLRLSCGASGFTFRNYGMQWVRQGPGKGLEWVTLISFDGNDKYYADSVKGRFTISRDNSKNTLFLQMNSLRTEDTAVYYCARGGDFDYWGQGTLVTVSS VL: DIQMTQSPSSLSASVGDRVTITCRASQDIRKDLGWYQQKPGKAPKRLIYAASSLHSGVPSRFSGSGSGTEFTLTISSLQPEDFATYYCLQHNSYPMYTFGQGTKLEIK",
    "quantity unit": "%",
    "result": 90
  },
  {
    "binder": "H1H6953N-mc-VC-PAB-MMD (antibody, human IgG1, V domains shown, MMD conjugated through mc-VC-PAB linker; attachment residues not stated) VH: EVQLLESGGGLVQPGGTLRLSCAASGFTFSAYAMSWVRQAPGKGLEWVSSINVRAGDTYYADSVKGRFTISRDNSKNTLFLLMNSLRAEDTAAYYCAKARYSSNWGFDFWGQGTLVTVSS VL: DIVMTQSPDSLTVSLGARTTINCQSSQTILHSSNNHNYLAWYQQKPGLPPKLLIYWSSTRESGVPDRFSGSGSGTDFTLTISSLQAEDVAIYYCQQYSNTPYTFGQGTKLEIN",
    "quantity unit": "%",
    "result": 90
  }
]

# context switch: different binder, same % Kill, MCF7/PRLR cells
Req: Using the record for H1H6953N-mc-VC-PAB-MMAE (antibody, human IgG1, V domains shown, MMAE conjugated through cleavable mc-vc-PAB linker; attachment residues not stated) VH: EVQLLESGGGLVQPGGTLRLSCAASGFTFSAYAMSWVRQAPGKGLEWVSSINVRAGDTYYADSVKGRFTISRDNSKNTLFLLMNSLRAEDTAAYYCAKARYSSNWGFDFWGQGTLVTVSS VL: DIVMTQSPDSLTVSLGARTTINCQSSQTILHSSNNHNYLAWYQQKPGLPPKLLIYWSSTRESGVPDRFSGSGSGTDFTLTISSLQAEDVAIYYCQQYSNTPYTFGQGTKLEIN , report its % Kill, MCF7/PRLR cells.
Resp: 85
